Target: HLA-A*0101 (human)
Assay: competition with 125I-labeled standard peptide for purified HLA-A*0101, gel filtration
Known binding affinity ratio (IC50 of standard peptide / IC50 of test peptide) of a selection of binders
// return a plain number; no unit text

Please give the measured binding affinity ratio (IC50 of standard peptide / IC50 of test peptide) for this binder: AGESFPGIY (modifications not checked) [… (PSM, position 701)]
0.004

Please give the measured binding affinity ratio (IC50 of standard peptide / IC50 of test peptide) for this binder: LFEPPPPGY (modifications not checked) [… (PSM, position 143)]
0.001

Please give the measured binding affinity ratio (IC50 of standard peptide / IC50 of test peptide) for this binder: LPERPSLY (modifications not checked) [LPERPSLY (PSA, position 232)]
0.0002

Please give the measured binding affinity ratio (IC50 of standard peptide / IC50 of test peptide) for this binder: EPALGTTCY (modifications not checked) [… (Kallikrein, position 145; PSA, position 141)]
0.0011

Please give the measured binding affinity ratio (IC50 of standard peptide / IC50 of test peptide) for this binder: KAENIKKFLY (modifications not checked) [… (PSM, position 66)]
0.0001

Source: patent US20070020327A1
